shrunken log2 fold change by entry:
test system: Escherichia coli TOP10; assay: shrunken log2 fold change of peptide-encoding DNA abundance (4.5 h post-induction vs induction); higher = less antimicrobial activity (less host growth inhibition); conditions: time post-induction: 4.5 h; library: site-saturation at positions 5, 18, 19, 20;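 also: peptides expressed intracellularly from a pBAD plasmid library in pooled LB shake-flask culture, induced with 0.3% L-arabinose, DNA abundance read by NGS, three biological replicates, DESeq2 with apeglm shrinkage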
measure.name: shrunken log2 fold change

> print(dat)
             chain.sequence               measure.name     value
 1  RRIRCRPPRLPRPRPRPQEWPRP  shrunken log2 fold change   0.00898
 2  RRIRQRPPRLPRPRPRPDDAPRP  shrunken log2 fold change   -0.0705
 3  RRIRWRPPRLPRPRPRPLKFPRP  shrunken log2 fold change    -0.121
 4  RRIRSRPPRLPRPRPRPWQSPRP  shrunken log2 fold change     0.143
 5  RRIRMRPPRLPRPRPRPRQAPRP  shrunken log2 fold change     0.013
 6  RRIRFRPPRLPRPRPRPEMGPRP  shrunken log2 fold change    0.0117
 7  RRIRYRPPRLPRPRPRPVCNPRP  shrunken log2 fold change    -0.649
 8  RRIRRRPPRLPRPRPRPEGFPRP  shrunken log2 fold change     0.151
 9  RRIRQRPPRLPRPRPRPAQLPRP  shrunken log2 fold change    0.0104
10  RRIRWRPPRLPRPRPRPSQPPRP  shrunken log2 fold change   -0.0613
11  RRIRCRPPRLPRPRPRPQGCPRP  shrunken log2 fold change   -0.0977
12  RRIRCRPPRLPRPRPRPCVIPRP  shrunken log2 fold change    -0.334
13  RRIRTRPPRLPRPRPRPGMEPRP  shrunken log2 fold change     0.013
14  RRIRWRPPRLPRPRPRPFAFPRP  shrunken log2 fold change    -0.195
15  RRIRHRPPRLPRPRPRPWGEPRP  shrunken log2 fold change   -0.0132
16  RRIRDRPPRLPRPRPRPVGEPRP  shrunken log2 fold change      0.55
17  RRIRGRPPRLPRPRPRPSWEPRP  shrunken log2 fold change    0.0693
18  RRIRDRPPRLPRPRPRPKRAPRP  shrunken log2 fold change   -0.0273
19  RRIRMRPPRLPRPRPRPFWHPRP  shrunken log2 fold change  -0.00226
20  RRIRFRPPRLPRPRPRPTHEPRP  shrunken log2 fold change     0.171
21  RRIRPRPPRLPRPRPRPVETPRP  shrunken log2 fold change    -0.158
22  RRIRVRPPRLPRPRPRPPAPPRP  shrunken log2 fold change     0.794
23  RRIRSRPPRLPRPRPRPTLKPRP  shrunken log2 fold change    -0.139
24  RRIRWRPPRLPRPRPRPHSQPRP  shrunken log2 fold change    0.0984
25  RRIRCRPPRLPRPRPRPCEDPRP  shrunken log2 fold change    -0.219
26  RRIRPRPPRLPRPRPRPIGWPRP  shrunken log2 fold change     0.376
27  RRIRMRPPRLPRPRPRPYWRPRP  shrunken log2 fold change    -0.159
28  RRIRDRPPRLPRPRPRPLMLPRP  shrunken log2 fold change     0.116
29  RRIRSRPPRLPRPRPRPDPMPRP  shrunken log2 fold change   -0.0673
30  RRIRTRPPRLPRPRPRPRTLPRP  shrunken log2 fold change    -0.121
31  RRIRYRPPRLPRPRPRPEQFPRP  shrunken log2 fold change     -0.14
32  RRIRKRPPRLPRPRPRPGKTPRP  shrunken log2 fold change   -0.0179
